# experimental target: UniProtKB Q9Y5Z0
# Sequence (Q9Y5Z0 whole entry): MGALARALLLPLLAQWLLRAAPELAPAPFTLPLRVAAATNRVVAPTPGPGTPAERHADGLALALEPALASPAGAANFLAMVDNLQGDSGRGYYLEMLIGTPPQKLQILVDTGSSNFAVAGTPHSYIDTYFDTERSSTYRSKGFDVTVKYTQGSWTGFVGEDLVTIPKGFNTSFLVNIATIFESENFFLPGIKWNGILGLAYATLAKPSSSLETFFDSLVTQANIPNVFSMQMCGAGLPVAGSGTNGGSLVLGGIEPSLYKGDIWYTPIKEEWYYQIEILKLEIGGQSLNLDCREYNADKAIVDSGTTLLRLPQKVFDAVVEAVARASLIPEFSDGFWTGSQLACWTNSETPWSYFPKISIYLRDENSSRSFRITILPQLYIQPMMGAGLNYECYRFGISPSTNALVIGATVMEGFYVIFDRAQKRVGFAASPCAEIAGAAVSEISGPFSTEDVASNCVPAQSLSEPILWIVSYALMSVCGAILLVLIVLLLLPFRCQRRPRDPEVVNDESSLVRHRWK
pIC50: −log10 of the molar value.
Give true when the value for pIC50 is at least 5. Give false when it is less.

Illustrative cases are given below, each with its answer.
compound	category
NC1=NC(c2ccccc2)(c2cccc(Cc3ccc(F)cc3)c2)C2=NCCCN12 (stereo unspecified)	true
CC1(C)CN2C(N)=NC(c3ccc(OC(F)(F)F)cc3)(c3cccc(-c4cccnc4F)c3)C2=N1 (stereo unspecified)	false
NC1=NC(c2ccc(OC(F)(F)F)cc2)(c2cccc(-c3cncnc3)c2)C2=NCCCN12 (stereo unspecified)	false
NC1=N[C@](c2ccc(OC(F)(F)F)cc2)(c2cccc(-c3cccnc3F)c2)C2=NCCCN12	true

Next up:
Answer whether pIC50 of NC1=NC(c2ccc(OC(F)(F)F)cc2)(c2cccc(CCC3CC3)c2)C2=NCCCN12 (stereo unspecified) is greater than or equal to 5.
true

---

# procedure summary: Inhibition of pepsin at 100 uM by FRET
Give True when the value for inhibition is at least 10%. Give False when it is less.

Illustrative cases are given below, each with its answer.
compound	category
NC1=N[C@](c2ccc(OC(F)(F)F)cc2)(c2cccc(-c3cccnc3F)c2)C2=NCCCN12	True
NC1=NC(c2cccc(-c3cccnc3F)c2)(c2ccc3c(c2)OCO3)C2=NCCCN12 (stereo unspecified)	True
NC1=N[C@](c2ccc(OC(F)(F)F)cc2)(c2cccc(-c3cncnc3)c2)C2=NCCCN12	True
NC1=NC(c2ccc(OC(F)(F)F)cc2)(c2cccc(-c3cccnc3F)c2)C2=NOCCN12 (stereo unspecified)	True
CCOc1ccc(C2(c3cccc(-c4cccnc4F)c3)N=C(N)N3CCCN=C32)cc1OCC (stereo unspecified)	True

Next up:
Answer whether inhibition of NC1=NC(c2ccccc2)(c2cccc(Cc3ccc(F)cc3)c2)C2=NCCCN12 (stereo unspecified) is greater than or equal to 10%.
False

---

# experimental target: Beta-secretase 1 (Homo sapiens, UniProt P56817)
# Sequence (P56817 whole entry): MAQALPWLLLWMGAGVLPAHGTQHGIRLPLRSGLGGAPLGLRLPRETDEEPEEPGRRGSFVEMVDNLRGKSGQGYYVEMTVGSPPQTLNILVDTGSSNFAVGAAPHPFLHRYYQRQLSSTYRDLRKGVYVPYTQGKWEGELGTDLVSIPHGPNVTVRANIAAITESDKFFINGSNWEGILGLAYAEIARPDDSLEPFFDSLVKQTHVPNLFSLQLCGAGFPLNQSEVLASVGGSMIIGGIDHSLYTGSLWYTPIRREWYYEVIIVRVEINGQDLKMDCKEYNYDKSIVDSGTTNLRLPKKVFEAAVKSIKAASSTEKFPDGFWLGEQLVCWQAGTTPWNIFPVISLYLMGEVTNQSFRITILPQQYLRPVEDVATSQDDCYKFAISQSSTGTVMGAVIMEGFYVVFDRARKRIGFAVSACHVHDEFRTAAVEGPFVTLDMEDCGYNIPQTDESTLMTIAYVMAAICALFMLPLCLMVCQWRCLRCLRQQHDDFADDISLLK
# procedure summary: Inhibition of BACE1 expressed in CHO cells co-expressing human wild type APP protein by ELISA
measurement kind: EC50
Please give the number followed by its unit.

Some solved cases for reference:
molecule	EC50
NC1=NC(c2ccccc2)(c2cccc(Cc3ccc(F)cc3)c2)C2=NCCCN12 (stereo not given)	4.6 µM
COc1ccc(C2(c3cccc(-c4cccnc4F)c3)N=C(N)N3CCCN=C32)cc1 (stereo not given)	1.63 µM
NC1=NC(c2ccc(OC(F)(F)F)cc2)(c2cccc(CCC3CC3)c2)C2=NCCCN12 (stereo not given)	0.95 µM
NC1=NC(c2ccc(OC(F)(F)F)cc2)(c2cccc(-c3cccnc3F)c2)C2=NOCCN12 (stereo not given)	0.2 µM
COc1ccc(Cc2cccc(C3(c4ccccc4)N=C(N)N4CCCN=C43)c2)cc1 (stereo not given)	5.1 µM

// lookup EC50 | system=Beta-secretase 1 (Homo sapiens, UniProt P56817) | key= CCCc1cccc(C2(c3ccc(OC(F)(F)F)cc3)N=C(N)N3CCCN=C32)c1 (stereo not given)
2.1 µM

Also need NC1=NC(c2ccccc2)(c2cccc(C(F)(F)F)c2)C2=NCCCN12 (stereo not given) , thanks.
5.1 µM

Also need NC1=NC(c2ccccc2)(c2cccc(Cc3ccccc3)c2)C2=NCCCN12 (stereo not given) , thanks.
5.1 µM

Also need NC1=NC(c2ccc(OC(F)(F)F)cc2)(c2cccc(-c3cccnc3F)c2)C2=NCCCCN12 (stereo not given) , thanks.
0.3 µM

Also need COc1cccc(C2(c3ccccc3)N=C(N)N3CCCN=C32)c1 (stereo not given) , thanks.
20.9 µM

---

# pIC50 measurements, system: Cathepsin D (Homo sapiens)
Note: pIC50 values are expressed as the negative base-10 logarithm of concentration in M.

Some solved cases for reference:
compound	value measured
COc1ccc(Cc2cccc(C3(c4ccccc4)N=C(N)N4CCCN=C43)c2)cc1 (stereo not given)	4.60
NC1=NC(c2ccc(OC(F)(F)F)cc2)(c2cccc(CCC3CC3)c2)C2=NCCCN12 (stereo not given)	4.78

// lookup pIC50 | system=Cathepsin D (Homo sapiens) | key= NC1=NC(c2ccc(OC(F)(F)F)cc2)(c2cccc(-c3cccnc3F)c2)C2=NCCCCN12 (stereo not given)
4.97

Also need NC1=NC(c2ccc(OC(F)(F)F)cc2)(c2cccc(-c3cccnc3F)c2)C2=NOCCN12 (stereo not given) , thanks.
5.62

Also need NC1=NC(c2ccccc2)(c2cccc(Cc3ccccc3)c2)C2=NCCCN12 (stereo not given) , thanks.
4.28

Also need CCOc1ccc(C2(c3cccc(-c4cccnc4F)c3)N=C(N)N3CCCN=C32)cc1OCC (stereo not given) , thanks.
4.20

Also need NC1=NC(c2ccc(OC(F)(F)F)cc2)(c2cccc(-c3cncnc3)c2)C2=NCCCN12 (stereo not given) , thanks.
4.10

---

Collected pIC50 values appear next to each entry.
# experimental target: Cathepsin D (Homo sapiens, UniProt P07339)
# Sequence (P07339 65-162 limits assumed): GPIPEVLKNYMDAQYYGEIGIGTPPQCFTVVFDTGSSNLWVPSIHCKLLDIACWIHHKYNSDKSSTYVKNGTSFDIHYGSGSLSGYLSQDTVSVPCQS
# Sequence (P07339 169-412 limits assumed): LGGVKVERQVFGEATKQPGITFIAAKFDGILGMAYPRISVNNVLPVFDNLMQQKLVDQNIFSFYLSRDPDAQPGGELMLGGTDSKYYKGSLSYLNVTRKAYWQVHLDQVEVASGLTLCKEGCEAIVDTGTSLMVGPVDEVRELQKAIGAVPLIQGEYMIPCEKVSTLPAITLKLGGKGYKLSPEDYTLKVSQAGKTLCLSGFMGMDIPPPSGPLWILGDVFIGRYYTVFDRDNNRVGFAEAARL
Note: pIC50 values are expressed as the negative base-10 logarithm of concentration in M.

Some solved cases for reference:
compound	experimental target	pIC50
NC1=N[C@](c2ccc(OC(F)(F)F)cc2)(c2cccc(-c3cccnc3F)c2)C2=NCCCN12	Cathepsin D (Homo sapiens, UniProt P07339)	5.16
NC1=NC(c2cccc(-c3cccnc3F)c2)(c2ccc3c(c2)OCCO3)C2=NCCCN12 (stereo not drawn)	Cathepsin D (Homo sapiens, UniProt P07339)	5.02

Now examine the next entry.
// lookup pIC50 | system=Cathepsin D (Homo sapiens, UniProt P07339) | key= NC1=NC(c2ccc(OC(F)(F)F)cc2)(c2cccc(-c3cccnc3F)c2)C2=NCCCN12 (racemic)
4.74
